- Test system: Liver microsomes
- assayText: Metabolic stability in human liver microsomes with 125 pmol/mL P450 assessed as compound turnover ratio at 5 uM after 30 mins by LC-MS method relative to verapamil
- Assay type: ADME, Microsome
- conditionInfo: 0.5 h
reportedMetric: Ratio

As a guide, the following entries are already answered.
smilesData: CC(=O)O.O=C1CNC(=O)N1c1ccc(CCCCOCCCCCCNC[C@H](O)c2ccc(O)c(CO)c2)cc1
Ratio: 0.3

smilesData: CC(=O)O.O=C1CNC(=O)N1c1cccc(CCCCOCCCCCCNC[C@H](O)c2ccc(O)c(CO)c2)c1
Ratio: 0.86

smilesData: CC(=O)O.NC(=O)CN1C(=O)CN(c2cccc(CCCCOCCCCCCNC[C@H](O)c3ccc(O)c(CO)c3)c2)C1=O
Ratio: 0.91

smilesData: CC(=O)O.CC1(C)NC(=O)N(c2cccc(CCCCOCCCCCCNC[C@H](O)c3ccc(O)c(CO)c3)c2)C1=O
Ratio: 0.48

I: O=C1CNC(=O)N1c1ccccc1CCCCOCCCCCCNC[C@H](O)c1ccc(O)c(CO)c1
II: CC(=O)O.O=C1CNC(=O)N1Cc1cccc(CCCCOCCCCCCNC[C@H](O)c2ccc(O)c(CO)c2)c1
Query: Between I and II , which one has the lower reported Ratio value? Your answer should be the label of the entry you select.
Response: I
(I: 0.46, II: 1.62)

P: CC(=O)O.O=C1CN(c2cccc(CCCCOCCCCCCNC[C@H](O)c3ccc(O)c(CO)c3)c2)C(=O)N1
Q: CC(=O)O.O=C1CN(Cc2cccc(CCCCOCCCCCCNC[C@H](O)c3ccc(O)c(CO)c3)c2)C(=O)N1
Query: Of the two listed items, which has the higher Ratio? First: P Second: Q Mark your answer with the label of the selected entry.
Response: Q
(Q: 0.75, P: 0.4)

* * *

- target: Beta-2 adrenergic receptor (Cavia porcellus, UniProt Q8K4Z4)
- Sequence (Q8K4Z4 whole entry): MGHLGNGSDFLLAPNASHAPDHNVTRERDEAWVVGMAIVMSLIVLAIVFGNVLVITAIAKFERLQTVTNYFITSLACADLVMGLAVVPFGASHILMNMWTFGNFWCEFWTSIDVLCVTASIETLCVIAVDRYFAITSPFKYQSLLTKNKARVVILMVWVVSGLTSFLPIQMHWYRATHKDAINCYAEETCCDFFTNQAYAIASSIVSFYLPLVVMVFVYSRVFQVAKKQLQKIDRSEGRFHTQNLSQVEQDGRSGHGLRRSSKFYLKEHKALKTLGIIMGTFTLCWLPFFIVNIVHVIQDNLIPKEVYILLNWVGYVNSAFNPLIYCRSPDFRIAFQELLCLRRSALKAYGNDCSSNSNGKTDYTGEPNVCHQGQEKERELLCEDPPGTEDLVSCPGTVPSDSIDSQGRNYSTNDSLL
- assayText: Agonist activity at adrenergic beta2 receptor in guinea pig trachea assessed as inhibition of electrically-stimulated contraction
reportedMetric: EC50 (nM)

compound: CC(=O)O.O=C1CNC(=O)N1c1cccc(CCCCOCCCCCCNC[C@H](O)c2ccc(O)c(CO)c2)c1
readoutUnits: nM
EC50: 0.794

A: OCc1cc(C(O)CNCCCCCCOCCCCc2ccccc2)ccc1O (stereo not given)
B: O=C(O)CNC(=O)Nc1cccc(CCCCOCCCCCCNC[C@H](O)c2ccc(O)c(CO)c2)c1
C: O=c1cc[nH]c(=O)n1-c1cccc(CCCCOCCCCCCNC[C@H](O)c2ccc(O)c(CO)c2)c1
D: CC(=O)O.O=C1CN(c2cccc(CCCCOCCCCCCNC[C@H](O)c3ccc(O)c(CO)c3)c2)C(=O)N1
Query: Order the items by recorded EC50; the first position goes to the largest value. Please respond by ranking the labels in the order requested.
Response: A, D, B, C
(A: 5.01 nM, D: 2.51 nM, B: 1 nM, C: 0.2 nM)

* * *

- assayText: Plasma clearance in Beagle dog at 0.052 mg/kg, iv by LC-MS/MS
- Type: ADME, organism-based, Canis lupus familiaris
- Parameters: dose 0.052 mg/kg, route intravenous
reportedMetric: clearance (mL/min/kg)
Supply the numeric figure in mL/min/kg, leaving out any unit text.

Query: Indicate its recorded clearance; the compound in question is CC(=O)O.O=C1CNC(=O)N1c1cccc(CCCCOCCCCCCNC[C@H](O)c2ccc(O)c(CO)c2)c1
Response: 13

* * *

- target: Beta-1 adrenergic receptor (Homo sapiens, UniProt P08588)
- Sequence (P08588 whole entry): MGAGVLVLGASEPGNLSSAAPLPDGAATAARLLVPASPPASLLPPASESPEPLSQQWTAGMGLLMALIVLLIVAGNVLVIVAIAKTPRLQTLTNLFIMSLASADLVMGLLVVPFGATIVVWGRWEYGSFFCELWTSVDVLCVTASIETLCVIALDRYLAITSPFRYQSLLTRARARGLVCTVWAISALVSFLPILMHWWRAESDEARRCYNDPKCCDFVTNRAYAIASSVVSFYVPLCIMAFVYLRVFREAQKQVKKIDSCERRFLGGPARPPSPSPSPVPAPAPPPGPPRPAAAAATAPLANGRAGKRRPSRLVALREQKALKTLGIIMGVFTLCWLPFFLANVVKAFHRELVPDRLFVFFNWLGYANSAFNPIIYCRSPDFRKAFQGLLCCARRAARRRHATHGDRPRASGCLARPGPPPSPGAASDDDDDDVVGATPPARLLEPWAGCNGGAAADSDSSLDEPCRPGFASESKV
- assayText: Agonist activity at human adrenergic beta1 receptor expressed in CHO cells assessed as cAMP accumulation
pEC50: −log10 of the molar value.
reportedMetric: pEC50

smilesData: O=C1CNC(=O)N1c1ccccc1CCCCOCCCCCCNC[C@H](O)c1ccc(O)c(CO)c1
target: Beta-1 adrenergic receptor (Homo sapiens, UniProt P08588)
pEC50: 6.70

smilesData: CC(=O)O.NC(=O)CN1C(=O)CN(c2cccc(CCCCOCCCCCCNC[C@H](O)c3ccc(O)c(CO)c3)c2)C1=O
target: Beta-1 adrenergic receptor (Homo sapiens, UniProt P08588)
pEC50: 6.80

smilesData: CC(=O)O.O=C1CNC(=O)N1c1ccc(CCCCOCCCCCCNC[C@H](O)c2ccc(O)c(CO)c2)cc1
target: Beta-1 adrenergic receptor (Homo sapiens, UniProt P08588)
pEC50: 7.10

smilesData: CC(=O)O.O=C1CNC(=O)N1Cc1cccc(CCCCOCCCCCCNC[C@H](O)c2ccc(O)c(CO)c2)c1
target: Beta-1 adrenergic receptor (Homo sapiens, UniProt P08588)
pEC50: 6.90

smilesData: CC(=O)O.O=C1CNC(=O)N1c1cccc(CCCCOCCCCCCNC[C@H](O)c2ccc(O)c(CO)c2)c1
target: Beta-1 adrenergic receptor (Homo sapiens, UniProt P08588)
pEC50: 7.10

smilesData: CC(=O)O.O=C1CN(Cc2cccc(CCCCOCCCCCCNC[C@H](O)c3ccc(O)c(CO)c3)c2)C(=O)N1
target: Beta-1 adrenergic receptor (Homo sapiens, UniProt P08588)
pEC50: 7.10

1: O=C(O)CNC(=O)Nc1cccc(CCCCOCCCCCCNC[C@H](O)c2ccc(O)c(CO)c2)c1
2: CC(=O)O.O=C1CN(c2cccc(CCCCOCCCCCCNC[C@H](O)c3ccc(O)c(CO)c3)c2)C(=O)N1
Query: Pick one: 1 or 2 . Which has the bigger pEC50 number? To answer, give the label that identifies your chosen option.
Response: 1
(1: 6.90, 2: 6.70)

* * *

- assayText: Half life in Beagle dog at 0.052 mg/kg, iv by LC-MS/MS
- Assay type: ADME, organism-based, Canis lupus familiaris
- Design: dose 0.052 mg/kg, route intravenous
- conditionInfo: in vivo
reportedMetric: half-life (h)
Give the quantity in h, number only.

Query: Supply recorded half-life for CC(=O)O.O=C1CNC(=O)N1c1cccc(CCCCOCCCCCCNC[C@H](O)c2ccc(O)c(CO)c2)c1 here.
Response: 2

* * *

- assayText: Oral bioavailability in Han Wistar rat at 2.0 mg/kg by LC-MS/MS
- Type: ADME, organism-based
- conditionInfo: in vivo
reportedMetric: bioavailability (%)
Give a bare numeral; the unit % is implied.

Query: Retrieve bioavailability measured for CC(=O)O.O=C1CNC(=O)N1c1cccc(CCCCOCCCCCCNC[C@H](O)c2ccc(O)c(CO)c2)c1 and print it.
Response: 2

* * *

- target: Beta-3 adrenergic receptor (Homo sapiens)
- Sequence (P13945 whole entry): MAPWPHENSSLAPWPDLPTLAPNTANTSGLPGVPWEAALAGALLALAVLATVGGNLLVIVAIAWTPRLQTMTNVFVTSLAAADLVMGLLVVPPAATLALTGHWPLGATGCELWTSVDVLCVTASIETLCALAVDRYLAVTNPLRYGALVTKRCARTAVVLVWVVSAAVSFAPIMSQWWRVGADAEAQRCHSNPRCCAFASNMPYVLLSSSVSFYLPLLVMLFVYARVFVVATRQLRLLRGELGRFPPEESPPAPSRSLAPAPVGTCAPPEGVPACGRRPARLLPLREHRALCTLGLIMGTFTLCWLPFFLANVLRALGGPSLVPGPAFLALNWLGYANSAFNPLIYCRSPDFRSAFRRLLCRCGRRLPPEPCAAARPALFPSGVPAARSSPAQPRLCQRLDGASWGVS
- assayText: Agonist activity at human adrenergic beta3 receptor expressed in CHO cells assessed as cAMP accumulation
reportedMetric: EC50 (nM)

Some solved cases for reference:
smilesData: CC(=O)O.NC(=O)CN1C(=O)CN(c2cccc(CCCCOCCCCCCNC[C@H](O)c3ccc(O)c(CO)c3)c2)C1=O
valueReported: 79.4

smilesData: CC(=O)O.O=C1CN(Cc2cccc(CCCCOCCCCCCNC[C@H](O)c3ccc(O)c(CO)c3)c2)C(=O)N1
valueReported: 63.1

1: CC(=O)O.CC1(C)NC(=O)N(c2cccc(CCCCOCCCCCCNC[C@H](O)c3ccc(O)c(CO)c3)c2)C1=O
2: CC(=O)O.O=C1CNC(=O)N1c1cccc(CCCCOCCCCCCNC[C@H](O)c2ccc(O)c(CO)c2)c1
Query: Please compare: 1 and 2 . Report which one has the smaller EC50 value. Identify your selection by its label.
Response: 1
